Source: PubChem BioAssay (NCATS)

# testName: Quantitative High-Throughput drug screen in 47 multiple myeloma cell lines against the NCATS MIPE library collection: LP1_DSMZ cell viability assay (AID 1918982); also: nearly all actives have a fitted effect of over 35% in size
# protocolConditions: LP1 myeloma viability, CellTiter-Glo ATP luminescence, 48 h; series mostly up to 45.8 µM
Inconclusive results are not listed. The source made the active and inactive calls. Calls follow the shape of the dose curve; as a rule, active = well fitted cell-killing curve with a large enough effect; inconclusive = small, poorly fitted or top-dose-only effect, or effect the other way; inactive = no such curve, though single readings can be large or run the other way.
Allowed answers: active, inactive

// below: answered molecules
- CC1(C)O[C@H]2CC(=O)OC[C@]23[C@H]2CC[C@@]4(C)[C@H](c5ccoc5)OC(=O)[C@H]5O[C@]54[C@]2(C)C(=O)C[C@@H]13: inactive
- CC(C)Cc1ccc(C(C)C(=O)O)cc1 (centres undefined): inactive
- CCN1CCCC1CNC(=O)c1cc(S(=O)(=O)CC)c(N)cc1OC (centres undefined): inactive
- NC(=O)OCC(COC(N)=O)c1ccccc1: inactive
- CN(CCOc1ccc(NS(C)(=O)=O)cc1)CCc1ccc(NS(C)(=O)=O)cc1: inactive

Query: Given CN1CCC(=C2c3ccccc3CC(=O)c3sccc32)CC1 , state the outcome it received in this test.
Reply: inactive

Query: Hello, I am checking results. What call was entered for O=C(Nc1ccc([N+](=O)[O-])cc1Cl)c1cc(Cl)ccc1O ?
Reply: active

Query: Hello, I am checking results. What call was entered for Cc1ccc(C(=O)Nc2ccc(S(=O)(=O)O)c3cc(S(=O)(=O)O)cc(S(=O)(=O)O)c23)cc1NC(=O)c1cccc(NC(=O)Nc2cccc(C(=O)Nc3cc(C(=O)Nc4ccc(S(=O)(=O)O)c5cc(S(=O)(=O)O)cc(S(=O)(=O)O)c45)ccc3C)c2)c1 ?
Reply: inactive

Query: Record request — test call for CCOC(=O)Nc1ccc(NCc2ccc(F)cc2)nc1N
Reply: inactive

Query: Field: outcome | Entry: CC#C[C@]1(O)CC[C@H]2[C@@H]3CCC4=CC(=O)CCC4=C3[C@@H](c3ccc(N(C)C)cc3)C[C@@]21C
Reply: active

----------
# Test system: UISO
# testName: qHTS assay to identify novel small-molecules to repurpose for Merkel cell carcinoma treatment (AID 1296009); also: nearly all actives have a fitted effect of over 60% in size
# protocolConditions: MCC and control cell lines, CellTiter-Glo viability, 72 h; series mostly up to 46 µM
Inconclusive results are not listed. The source made the active and inactive calls. Calls come from the whole dose curve; as a rule, active = well fitted inhibition curve with a large enough effect; inconclusive = small, poorly fitted or top-dose-only effect; inactive = flat fitted curve, though single readings scatter.
I would appreciate it if you answered using one of these outcomes: yes for active, no for inactive

* O=C1N(c2ccccc2)c2ccccc2C1(Cc1ccncc1)Cc1ccncc1 | no
* CN1C(C(=O)Nc2ccccn2)=C(O)c2ccccc2S1(=O)=O | no
* CN1CCC(=C2c3ccccc3C=Cc3ccccc32)CC1 | no
* Cc1ccc(C(=O)Nc2ccc(S(=O)(=O)O)c3cc(S(=O)(=O)O)cc(S(=O)(=O)O)c23)cc1NC(=O)c1cccc(NC(=O)Nc2cccc(C(=O)Nc3cc(C(=O)Nc4ccc(S(=O)(=O)O)c5cc(S(=O)(=O)O)cc(S(=O)(=O)O)c45)ccc3C)c2)c1 | no
* CC(C)C(=O)Nc1ccc([N+](=O)[O-])c(C(F)(F)F)c1 | no
* COC(=O)Nc1nc2ccc(C(=O)c3cccs3)cc2[nH]1 | yes

Query: Tell me the assay call for NCCc1cnc[nH]1 please.
Reply: no

Query: // return assay outcome for CCN1CCCC1CNC(=O)c1cc(S(=O)(=O)CC)c(N)cc1OC (stereo unspecified)
Reply: no

Query: # fetch the recorded call for COc1ccc(C2CNC(=O)C2)cc1OC1CCCC1 (stereo unspecified) here
Reply: no

Query: Test call, this compound: COc1ccccc1N1CCN(CC(O)COc2cccc3ccccc23)CC1 (stereo unspecified)
Reply: no
